Quick list: Ki per entry.
assay: In vitro inhibitory activity against prenylated protein methyltransferase (PPMTase), activity expressed as Ki(inhibitory constant); set-up: species or system Rattus norvegicus
Lab book: enter the figure in µM, no units written.

Past entries and their recorded results:
compound	observed-result
CC(C)=CCC/C(C)=C/CC/C(C)=C/CSc1cc(F)ccc1C(=O)O	23
CC(C)=CCC/C(C)=C/CC/C(C)=C/CSc1cc(Cl)ccc1C(=O)O	28
CC(C)=CCC/C(C)=C/CC/C(C)=C/CSc1ccccc1C(=O)O [SALIRASIB]	2.8
CC(C)=CCC/C(C)=C/CC/C(C)=C/CSc1ccc(F)cc1C(=O)O	6.3

With those in mind, consider the next compound.
Param item = CC(C)=CCC/C(C)=C/CC/C(C)=C/CSc1ccc(Cl)cc1C(=O)O ; retrieve measured Ki.
8.5
